The entries below are paired with their reported melting point.
assay endpoint: melting point (°C)

> print(dat)
                                   molecule  assay.endpoint  measured
1  C=C1C(=O)C23C4CC5C(C)(C)CCC(=O)C5(C(=O)O4)C2C(=O)CC1C3O (centres undefined)   melting point       250
2  CCOC(=O)c1c(SC)nn(-c2ccc([N+](=O)[O-])cc2)c1N   melting point       181
3  CCC1NC(=O)c2cc(S(N)(=O)=O)c(Cl)cc2N1 (centres undefined)   melting point       251
4                     Cc1cccc2cc3ccccc3cc12   melting point      85.5

====

Recorded melting point split into classes lower level: < 60 °C; middle level: ≥ 60 °C and < 100 °C; upper level: ≥ 100 °C

> print(dat)
                                    molecule         group
 1                     ClCc1noc(-c2ccccc2)n1  middle level
 2                         CCOC(=O)CC(=O)CCl   lower level
 3                                  Cn1ccnc1   lower level
 4                 Cc1ccc(C(C)C)c(O)c1C(=O)O   upper level
 5  O=C1OC(c2ccccc2)=N/C1=C\c1ccc(/C=C2/N=C(c3ccccc3)OC2=O)cc1   upper level
 6           O=c1n(CCO)c(=O)n(CCO)c(=O)n1CCO   upper level
 7  O=c1c(C2CC(c3ccc(OCc4ccc(C(F)(F)F)cc4)cc3)Cc3ccccc32)c(O)oc2ccccc12 (stereo unspecified)  middle level
 8                   Oc1ccc2c(c1)Cc1ccccc1-2   upper level
 9                          N#CCC(=O)N1CCCC1  middle level
10            COC(=O)c1cccc([N+](=O)[O-])c1O   upper level
11       ClC(Br)C(Cl)Br (stereo unspecified)   lower level

====

assay endpoint: melting point

> print(dat)
                                   compound  assay.endpoint       measured
1  CC(=NO)c1ccc2c(c1)CC(C)O2 (stereo not drawn)   melting point    83 to 85 °C
2               FC(F)(F)c1cc(Cl)c(I)c(Br)c1   melting point    29 to 31 °C
3  CCCC(NC(=O)C(C)N)C(=O)O (mixture of isomers)   melting point  240 to 242 °C

====

The entries below are paired with their reported melting point.
assay endpoint: melting point

> print(dat)
                                    compound       measured
 1      CON=C(C(=O)Sc1nc2ccccc2s1)c1csc(N)n1  126 to 130 °C
 2  CCC1(CC)C(=O)NCC(C)C1=O (stereo unspecified)          76 °C
 3              N#Cc1ccc(OCc2ccc3nonc3c2)cc1  160 to 162 °C
 4                 O=C(Cl)c1ccccc1COc1ccccc1    49 to 51 °C
 5  COc1ccc(N/N=C(/C(=O)c2cccc3ccccc23)S(=O)(=O)c2ccccc2)cc1         118 °C
 6                 Cc1nc(-c2ccccn2)nc(O)c1Cl  142 to 144 °C
 7                           Brc1ccc2nonc2c1    72 to 74 °C
 8        CC(C)(C)OC(=O)C(C)(C)Sc1ccc(Cl)cc1    44 to 46 °C
 9                       Cn1ccc2c(C#N)cccc21    41 to 43 °C
10                          N#Cc1ccc[nH]c1=O  222 to 225 °C
11                          Fc1cccc(Cl)c1CCl           7 °C
12  O=S(=O)(c1ccccc1)C1CC1(Cl)Cl (stereo unspecified)    83 to 88 °C
13                       Cc1cc(Cl)cc(C=O)c1O    67 to 68 °C
14  CC(=O)SC1CC2=CC(=O)CC(SC(C)=O)C2(C)C2CCC3(C)C(CCC3(C)O)C12 (stereo unspecified)         206 °C
15      Cn1c(=O)c2c(nc(Cl)n2CC(=O)O)n(C)c1=O  198 to 199 °C
16     CCOC(=O)c1sc(SC(C)C)c2c1CC(C)(C)CC2=O    87 to 89 °C
